Data origin: PubChem BioAssay AID430

# testProtocol: cytotoxicity in HPDE-C7 cells, cell-based, fluorescence, HTS (AID 430);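 further: cells exposed to compound for 48 hours before viability readout; 0% = vehicle and 100% = reference cytotoxic drug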
# condition: HPDE-C7 pancreatic duct cells viability, at 10 µM
In all, about 63,000 compounds went through this assay and about 1,100 (1.7%) were called active. No stated cut-off is given here; in the data, active means cytotoxicity above about 50%; inactive means the rest. What follows is part of a selection rich in actives, with near analogues and random picks from the rest. Results with a measured potency or affinity are listed apart.
Tick one outcome: active, inactive

Please indicate how the test categorized Cc1ccc(C2C3CN(C(C)C)CC=C3C(C#N)=C(N)C2(C#N)C#N)cc1 (stereo not given) .
inactive

Also need `CCCCn1c(NC(=O)c2ccc(F)cc2)c(C#N)c2nc3ccccc3nc21` , thanks.
active

Continue with CCOC(=O)C1C(=O)CC(C)(O)C(C(=O)OCC)C1c1ccccc1OC (stereo not given)
inactive

And the next one, `CCOC(=O)N1CCN(C(=O)CSc2nnc(Cc3cccn3C)n2CCc2ccccc2)CC1` ?
inactive

Similarly, `CN(C)/C=C1/Sc2ccccc2C1=O` ?
inactive

Please answer likewise for `CCOC(=O)N1CCN(C(=O)CSc2nnc(-c3cccc(OC)c3)o2)CC1`
inactive

Now try CSCCC(NC(=O)c1ccccc1)C(=O)NCc1ccco1 (stereo not given) .
inactive

Cool, now `CCCCn1c(NC(C)=O)c(C#N)c2nc3ccccc3nc21`
inactive

// query: `CCCCn1c(NC(=O)c2ccccc2)c(C#N)c2nc3ccccc3nc21`
active

One more compound: `COC(=O)c1ccsc1NC(=O)c1ccc(Cl)s1`
inactive

Next: CC(C)N1CC(C(=O)Nc2nc3ccccc3s2)CC1=O (stereo not given)
inactive

Same again, this time with `Cc1csc(SCc2nnc(-c3ccccc3Br)o2)n1`
inactive

Now the same for `N#CC1=C(N)C(C#N)(C#N)[C@H](c2ccncc2)[C@H]2CC3(CC=C12)OCCO3`
inactive

Next record, please: `CC(=O)N1CCN(CC(=O)Nc2c(Cl)cc(Cl)cc2Cl)CC1`
inactive

Another compound to check: `CN(C)CCCNC(=O)Cc1ccc(Br)cc1`
inactive

Also check `Cc1ccnc(NC(=O)C2CCN(S(=O)(=O)c3cccc4nsnc34)CC2)c1`
inactive

Try `COc1ccc(OC)c(NC(=O)CCN2CCN(Cc3ccccc3)CC2)c1` next.
inactive

Try this compound too: `CCCCn1c(NC(=O)CC)c(C#N)c2nc3ccccc3nc21`
inactive

Lookup `C=CCn1c(NC(=O)c2ccccc2Cl)c(C#N)c2nc3ccccc3nc21`
inactive

Would you kindly repeat that for `COc1cc(Cl)ccc1S(=O)(=O)n1nc(C)cc1C` ?
inactive

Now the same for `Cc1nn(-c2ccc(F)cc2F)c2c1-c1nc(N3CCCC3)ncc1CC2`
inactive

Consider next the compound `COc1ccccc1C(=O)NCCn1cc(SCC(=O)Nc2nnc(C)s2)c2ccccc21` in the same way.
inactive

Try this compound next: `Cn1c(N)c(C(=O)CSc2nc3ccccc3n2-c2ccccc2)c(=O)n(C)c1=O`
active

Likewise for `Cc1ccc(-n2ncc(C#N)c2/N=C/N(C)C)cc1` ?
inactive

// next record `COc1ccc(OC(=O)c2cc3ccccc3o2)cc1`
inactive

###

Can you tell me cytotoxicity for the items I'm about to list?
# testProtocol: cytotoxicity in HPDE-C7 cells, cell-based, fluorescence, HTS (AID 430);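 further: cells exposed to compound for 48 hours before viability readout; 0% = vehicle and 100% = reference cytotoxic drug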
# condition: HPDE-C7 pancreatic duct cells viability, at 10 µM, hits give high values
Screen size: about 63,000 compounds; about 1,100 (1.7%) were called active. The sample as a whole holds a higher share of actives than the screen did. Results with a measured potency or affinity are listed apart.
Just the number please, in %, no unit attached.

Name the reported cytotoxicity value associated with the compound `Cc1ccc(Cn2nc(C)c(NC(=O)c3cc(-c4ccc5c(c4)OCO5)on3)c2C)cc1`
16.2

Next compound: COc1ccc(Cl)c(Cn2c(NCC(C)O)nc3c2c(=O)n(C)c(=O)n3C)c1 (configuration not stated)
-9.9

Field entry: CCOC(=O)C1=C(N)n2c(s/c(=C\c3cccnc3)c2=O)=C(C(=O)OC)C1c1cccnc1 (configuration not stated)
10.6

Please do the same for `Cc1nn(Cc2ccc(Cl)cc2)c(C)c1NC(=O)c1cc(-c2ccc3c(c2)OCO3)on1` as well.
35.4

Here is the next compound: `O=C(CSc1nnnn1C1CCCCC1)NCc1ccc2c(c1)OCO2`
3.2

And the next one, `NC(=O)c1ccsc1NC(=O)COC(=O)c1ccccc1NCc1ccco1` ?
0.6

Thanks! And `C(=N\n1cnnc1)/c1cn(-c2cccs2)nc1-c1ccccc1` ?
-5.7

Another compound: `O=C(NC1CCCCC1)c1ccc(CS(=O)(=O)Cc2ccccc2F)o1`
-6.3

Param item: `CCOC(=O)c1ccccc1NC(=O)Cn1c(-c2nonc2N)nc2ccccc21`
67.8

Queued: `Cn1cccc1Cc1nnc(SCC(=O)Nc2ccccc2)n1-c1ccc(F)cc1`
0

Same again, this time with `O=C(Nc1ccc(N2CCN(c3ccc(O)cc3)CC2)cc1)Oc1ccccc1`
50.7

Another compound to check: `OCC(CO)(CO)N=Cc1c(O)ccc2ccccc12`
58.9

###

# testProtocol: cytotoxicity in HPDE-C7 cells, cell-based, fluorescence, HTS (AID 430);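 further: cells exposed to compound for 48 hours before viability readout; 0% = vehicle and 100% = reference cytotoxic drug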
# condition: HPDE-C7 pancreatic duct cells viability, at 10 µM, hits give high values
In all, about 63,000 compounds went through this assay and about 1,100 (1.7%) were called active. Only a selection was taken, and actives are over-represented in it overall. Potency and affinity values are given separately.
readoutType: cytotoxicity (%)
// units = %; emit number, no label

Would you mind telling me what cytotoxicity value was observed for `COc1ccc(C(=O)Oc2ccc3c(c2)OCO3)cc1OC` ?
-13.3

Same for `O=C1CCC(=O)N1CC(=O)N1c2ccccc2Sc2ccccc21`
-7.4

Param item: `Nn1c(Cc2ccccc2F)nnc1SCC(=O)N1CC(=O)Nc2ccccc21`
-3.4

Same question, `CC(=O)Nc1c(O)n(C)c2ccccc12` this time
-20.2

Please give the result for `Nc1nc2nccc(-c3ccc(Cl)cc3)n2n1` too.
3.6

Try this molecule next: `CCCOC(=O)c1ccc(-c2c(C)noc2-c2ccc(OC)cc2O)o1`
-2.8

###

# testProtocol: cytotoxicity in HPDE-C7 cells, cell-based, fluorescence, HTS (AID 430);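 further: cells exposed to compound for 48 hours before viability readout; 0% = vehicle and 100% = reference cytotoxic drug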
# condition: HPDE-C7 pancreatic duct cells viability, at 10 µM, hits give high values
The campaign covered roughly 63,000 compounds. About 1,100 (1.7%) were called active. What follows is part of a selection rich in actives, with near analogues and random picks from the rest. Potency and affinity values are given separately.
readoutType: cytotoxicity (%)
Could you give me the number in %? Just the number is fine.

Find the recorded cytotoxicity belonging to `CC(=O)Nc1sc(N)nc1-c1ccccc1` and report it.
3.9

What about this compound? `COc1cccc(C(=O)Nc2ccc(-c3nc4ccccc4o3)c(O)c2)c1`
15.3

Moving on to `Oc1ccc(CNc2ccccc2)c2cccnc12`
34.7

// same read-out, input: CCN1CCN(C(=O)c2ccc3c(c2)N(Cc2ccc(F)cc2)C(=O)c2ccccc2S3=O)CC1 (configuration not stated)
-1.9

Follow-up item: `CCOC(=O)c1c(NC(=O)c2cccs2)sc(C)c1CC`
-2.4

Then what about the compound `Oc1ccc(CN2CCN(Cc3ccccc3)CC2)c2cccnc12` ?
6.2

Repeat for the following compound: `CSc1nc2cc(F)c(F)cc2n1C`
-9.5

Can you check C=CCOc1ccc(/C(O)=C2/C(=O)C(=O)N(CCN3CCOCC3)C2c2ccc(C)cc2)cc1 (configuration not stated) next?
-1.1

Follow-up entry: `c1coc(CNc2nc3sc4c(c3c3ncnn23)CCCC4)c1`
-5.5

# repeat for COc1ccc(-c2cc3ccccc3n2CC(O)CN2CCN(CCO)CC2)cc1 (configuration not stated)
52.6

Thanks! And `Cc1cc(=O)[nH]c(N2CCN(C(c3ccccc3)c3ccccc3)CC2)n1` ?
-6

Would you kindly repeat that for COc1ccc(-c2cc3ccccc3n2CC(O)CNC(CO)(CO)CO)cc1 (configuration not stated) ?
6.1

Again, but for `Oc1c(CN2CCOCC2)cc(COCc2ccccc2)c2cccnc12`
60.7

Same read-out for `CN1CCN(Cc2cc(COCc3ccccc3)c3cccnc3c2O)CC1` ?
-9.2

Next up: `CC(=O)N1C(=O)C2(Nc3ccccc3N2)c2ccccc21`
-0.7

`CCCSc1nnc(NC(=O)Nc2ccc(F)cc2)s1` , same question.
69.6

Also `CCOc1ccccc1N1CCN(Cc2cccc(OC)c2OC)CC1` ?
-10.5

Thanks! And `O=C(Nc1cccc(-c2nnc(-c3ccccc3)o2)c1)c1ccco1` ?
-6.9

Try this compound too: `Cc1nc2ccc(N3C(=O)CCC3=O)cc2[nH]1`
-18.8

// query: `CCc1c(C)sc(NC(=O)c2cccs2)c1C(=O)OC(C)C`
58.9

Repeat for the following compound: `Oc1ccc(CNc2ccccc2F)c2cccnc12`
-4.7

Cool, now `COc1ccc(N(CC(=O)N2CCc3ccccc3C2)S(=O)(=O)c2c(C)[nH]c(=O)[nH]c2=O)cc1`
-21.6

Note, next up: `Cc1ccc(-c2nc3ccccc3o2)cc1NC(=O)c1ccc2c(c1)OCO2`
-10

Again, but for c1ccc2oc(NC3=NCN(CC4CCCO4)CN3)nc2c1 (configuration not stated)
-19.3

Also `Cc1cc(C)n(CC(=O)n2c3c(c4ccccc42)CCCC3)n1` , if possible.
-18.6

Likewise for CCc1cccc(NC(=O)C2CCCN(S(=O)(=O)c3c(C)[nH]c(=O)[nH]c3=O)C2)c1 (configuration not stated) ?
-1.3

// repeat for `CCc1ccc(-c2nc(C(N)=O)c3[nH]c(=O)n(-c4ccccc4OC)c3n2)cc1` and report
52.3

Quick one: `FC(F)(F)c1cc(-c2ccco2)nc(-n2nc(C(F)(F)F)cc2C2CC2)n1`
5.7

Next up: `CC(C)OC(=O)c1c(NC(=O)c2cccs2)sc2c1CCCC2`
9.8

Follow-up entry: `CCC(=O)Nc1nnc(SCC(=O)Nc2ccc(F)cc2)s1`
2.1

Another compound to look at: `COCCCNC(=O)CCCn1c(=O)[nH]c2ccccc2c1=O`
-15.8

Now the compound `COc1ccc(-c2nc(C(N)=O)c3[nH]c(=O)n(-c4ccccc4OC)c3n2)c(OC)c1`
-6.2

Input `COc1ccccc1N1CCN(Cc2cc(Br)c(O)c3ncccc23)CC1`
5.1

Same for `CCOC(=O)N1CCN(S(=O)(=O)c2cc(Cl)c(OC)cc2Cl)CC1`
-2.9

Subsequent entry: CC(C)CCN1C(=O)CCC1(C)C(=O)NC1CCCCCC1 (configuration not stated)
-16.5

// next record `COC(=O)c1ccc(-c2nc3ccccc3o2)cc1`
-9.2

Also, `CCC1(COC(NC(=O)c2cccnc2)(C(F)(F)F)C(F)(F)F)COC1` please.
-0.9
